experimental_endpoint: pIC50
pIC50 here is simply -log10 of the concentration when that concentration is written in mol/L.

Item "CC[C@H](CO)Nc1nc(NCc2ccccc2N)c2[nH]nc(C(C)C)c2n1" ; assay system Cyclin-dependent kinase 2 (Homo sapiens, UniProt P24941); pIC50 reported as 7.15

The recorded pIC50 with Cyclin-dependent kinase 2 (Homo sapiens, UniProt P24941) for "Cc1cc(C)cc(NNC(=O)[C@H]2CCCN2C(=O)Nc2ccc(C(F)(F)F)cc2)c1" was 7.64

# lookup: "Cc1cc(C)cc(NNC(=O)[C@H]2CCCN2C(=O)Nc2ccc(Cl)cc2)c1" on Cyclin-dependent kinase 2 (Homo sapiens, UniProt P24941), pIC50 = 7.82

Here "O=C(Nc1cc(-c2ccc3nc4c([nH]c5ccccc54)c(N4CCOCC4)c3c2)ccn1)C1CC1" was tested on Cyclin-dependent kinase 2 (Homo sapiens, UniProt P24941), and its pIC50 came to 5.41

The molecule "N[C@H]1CCN(c2c3cc(-c4ccnc(NC(=O)C5CC5)c4)ccc3nc3c2[nH]c2ccccc23)C1" on Cyclin-dependent kinase 2 (Homo sapiens, UniProt P24941): pIC50 was 6.84

* * *

target_entity: Receptor-type tyrosine-protein kinase FLT3 (Homo sapiens, UniProt P36888)
Sequence (P36888 whole entry): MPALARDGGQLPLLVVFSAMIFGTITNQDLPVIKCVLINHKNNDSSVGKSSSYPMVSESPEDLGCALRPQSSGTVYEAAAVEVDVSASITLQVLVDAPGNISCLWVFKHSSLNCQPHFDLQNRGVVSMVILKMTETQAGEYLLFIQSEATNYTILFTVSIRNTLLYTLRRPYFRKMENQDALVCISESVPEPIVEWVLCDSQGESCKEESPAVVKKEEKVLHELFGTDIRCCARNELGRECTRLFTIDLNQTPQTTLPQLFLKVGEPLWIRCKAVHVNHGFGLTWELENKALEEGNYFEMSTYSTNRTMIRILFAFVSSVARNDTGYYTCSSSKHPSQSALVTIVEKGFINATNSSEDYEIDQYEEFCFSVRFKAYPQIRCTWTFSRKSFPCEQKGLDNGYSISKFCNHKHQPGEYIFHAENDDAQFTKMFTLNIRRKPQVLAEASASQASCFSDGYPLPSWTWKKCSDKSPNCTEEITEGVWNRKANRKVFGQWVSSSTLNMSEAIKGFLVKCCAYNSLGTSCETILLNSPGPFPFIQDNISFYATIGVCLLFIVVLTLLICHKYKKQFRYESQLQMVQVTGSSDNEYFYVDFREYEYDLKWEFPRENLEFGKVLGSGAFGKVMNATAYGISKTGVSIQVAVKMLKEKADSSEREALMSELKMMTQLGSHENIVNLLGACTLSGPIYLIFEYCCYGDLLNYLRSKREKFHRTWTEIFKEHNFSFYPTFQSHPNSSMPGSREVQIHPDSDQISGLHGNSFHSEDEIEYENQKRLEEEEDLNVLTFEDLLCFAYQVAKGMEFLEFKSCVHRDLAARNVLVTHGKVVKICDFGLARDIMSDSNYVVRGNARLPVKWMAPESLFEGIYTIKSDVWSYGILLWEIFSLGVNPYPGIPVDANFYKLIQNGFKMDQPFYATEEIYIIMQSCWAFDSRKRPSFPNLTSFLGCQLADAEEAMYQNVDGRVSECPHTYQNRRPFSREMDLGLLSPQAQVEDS
test_details: Inhibition human recombinant FLT3
experimental_endpoint: pIC50
Worth noting: pIC50 values are minus log10 of concentrations stated in mol/L.

Form: molecule = "CCN1CCN(c2ccc(Nc3ncc(F)c(-c4cnc5cnn(C(C)C)c5c4)n3)cc2)CC1" ; pIC50 = 8.10

The molecule listed as "CCN1CCN(c2ccc(Nc3ncc(F)c(-c4cnc5cnn(C(C)C)c5c4)n3)cc2F)CC1" shows pIC50 equal to 7.96

* * *

test_details: Antiproliferative activity against human PC-3 cells
Format: functional, cell-based
experimental_endpoint: IC50 (nM)
Write it as a number; the unit nM goes unstated.

Memo: Cc1n[nH]c2c1C(c1ccc(F)cc1)C(C#N)=C(N)O2 (stereo unspecified) , reported IC50: 2800

* * *

target_entity: Cyclin-dependent kinase 9 (Homo sapiens)
Sequence (P50750 whole entry): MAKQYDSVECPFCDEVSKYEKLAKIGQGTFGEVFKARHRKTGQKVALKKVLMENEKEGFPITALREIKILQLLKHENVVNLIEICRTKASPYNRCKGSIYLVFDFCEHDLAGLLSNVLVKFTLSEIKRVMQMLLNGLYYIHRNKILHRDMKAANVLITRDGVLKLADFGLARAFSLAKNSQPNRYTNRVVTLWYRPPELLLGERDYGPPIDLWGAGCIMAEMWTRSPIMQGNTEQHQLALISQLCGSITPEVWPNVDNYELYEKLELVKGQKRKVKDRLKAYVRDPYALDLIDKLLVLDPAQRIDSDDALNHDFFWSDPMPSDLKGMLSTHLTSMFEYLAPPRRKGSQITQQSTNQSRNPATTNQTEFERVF
experimental_endpoint: IC50
The number alone won't do; follow it with the unit.

Query "COC[C@@H](C)N[C@H]1CC[C@H](Nc2cc(-c3cccc(NCC4(C#N)CCOCC4)n3)c(Cl)cn2)CC1" yields IC50 of 0.51 nM

* * *

Test system: SK-OV-3
test_details: Cytotoxicity against human SK-OV-3 cells assessed as inhibition of cell growth incubated for 72 hrs by MTT assay
Format: functional, cell-based
measurement_setup: SK-OV-3, 72 h
experimental_endpoint: IC50 (nM)
I only need the number, in nM, no unit after it.

Reported IC50 for "Cc1nc2c(F)cc(-c3nc(Nc4ccc(N5CCN(C(=O)c6cc(Cc7n[nH]c(=O)c8ccccc78)ccc6F)CC5)cn4)ncc3F)cc2n1C(C)C" was 548

* * *

experimental_endpoint: IC50 (nM)
Entry rule: numbers only, all in nM.

Bench note, Histone deacetylase 1 (Homo sapiens, UniProt Q13547): "O=C(CCCCCCC(=O)Nc1cccc(C(=O)Nc2cccc(Nc3ncc(Cl)c(-c4c[nH]c5ccccc45)n3)c2)c1)NO" , IC50 reads 248

* * *

System: HT-29
test_details: Antiproliferative activity against human HT-29 cells assessed as reduction in cell viability incubated for 24 hrs by MTT assay
Assay type: functional, cell-based
measurement_setup: HT-29, 24 h
experimental_endpoint: IC50 (µM)
# unit: µM | format: bare number

Documented IC50 of "Cc1ccc(NNC(=O)[C@H]2CCCN2C(=O)Nc2ccc(C(F)(F)F)cc2)cc1" : 4.2

* * *

System: HCT-116
test_details: Cytotoxicity against human HCT-116 cells assessed as reduction in cell growth incubated fro 72 hrs by MTT assay
Format: functional, cell-based
measurement_setup: HCT-116, 72 h
experimental_endpoint: pIC50
The read-out pIC50 is expressed as -log10 of concentration in moles per litre.

So for "N[C@H]1CCN(c2c3cc(-c4ccnc(NC(=O)C5CC5)c4)ccc3nc3c2[nH]c2ccccc23)C1" , the logged pIC50 turned out to be 6.09

* * *

target_entity: Poly [ADP-ribose] polymerase 1 (Homo sapiens, UniProt P09874)
Sequence (P09874 whole entry): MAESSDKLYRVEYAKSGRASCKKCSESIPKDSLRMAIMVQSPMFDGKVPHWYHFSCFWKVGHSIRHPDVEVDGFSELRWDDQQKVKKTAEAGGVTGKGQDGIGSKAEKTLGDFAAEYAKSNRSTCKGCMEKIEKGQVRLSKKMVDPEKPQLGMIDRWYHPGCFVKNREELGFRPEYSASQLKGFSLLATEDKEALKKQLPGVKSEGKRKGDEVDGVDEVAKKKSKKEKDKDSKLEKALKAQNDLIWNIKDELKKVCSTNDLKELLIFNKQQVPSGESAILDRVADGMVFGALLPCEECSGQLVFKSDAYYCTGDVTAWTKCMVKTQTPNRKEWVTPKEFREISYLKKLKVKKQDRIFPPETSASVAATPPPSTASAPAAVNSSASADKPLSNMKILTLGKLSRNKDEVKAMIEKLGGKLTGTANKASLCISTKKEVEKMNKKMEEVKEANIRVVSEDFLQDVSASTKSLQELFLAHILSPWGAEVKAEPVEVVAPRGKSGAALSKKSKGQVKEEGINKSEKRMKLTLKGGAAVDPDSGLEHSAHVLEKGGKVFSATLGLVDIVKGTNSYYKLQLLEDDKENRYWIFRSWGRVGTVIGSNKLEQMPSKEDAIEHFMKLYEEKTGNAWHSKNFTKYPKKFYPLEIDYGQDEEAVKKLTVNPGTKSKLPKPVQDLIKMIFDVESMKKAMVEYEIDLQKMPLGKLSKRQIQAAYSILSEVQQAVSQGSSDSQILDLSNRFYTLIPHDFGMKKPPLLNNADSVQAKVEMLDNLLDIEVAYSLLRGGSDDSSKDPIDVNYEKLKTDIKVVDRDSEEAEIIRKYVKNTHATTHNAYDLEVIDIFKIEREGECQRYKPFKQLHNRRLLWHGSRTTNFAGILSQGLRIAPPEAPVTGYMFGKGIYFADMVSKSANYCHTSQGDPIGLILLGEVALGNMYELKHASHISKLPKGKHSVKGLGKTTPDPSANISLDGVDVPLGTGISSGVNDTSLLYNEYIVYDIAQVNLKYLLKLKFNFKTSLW
test_details: Inhibition of PARP-1 (unknown origin) incubated for 60 mins by chemiluminescent assay
experimental_endpoint: IC50 (nM)
Supply the numeric figure in nM, leaving out any unit text.

# IC50 measured on Poly [ADP-ribose] polymerase 1 (Homo sapiens, UniProt P09874) for item "Cc1nnc2n1N=C(c1ccccc1OCC(=O)NCCCNC(=O)COc1ccccc1C1=Nn3c(C)nnc3SC1)CS2" = 1.37

* * *

target_entity: Extracellular calcium-sensing receptor (Homo sapiens, UniProt P41180)
Sequence (P41180 whole entry): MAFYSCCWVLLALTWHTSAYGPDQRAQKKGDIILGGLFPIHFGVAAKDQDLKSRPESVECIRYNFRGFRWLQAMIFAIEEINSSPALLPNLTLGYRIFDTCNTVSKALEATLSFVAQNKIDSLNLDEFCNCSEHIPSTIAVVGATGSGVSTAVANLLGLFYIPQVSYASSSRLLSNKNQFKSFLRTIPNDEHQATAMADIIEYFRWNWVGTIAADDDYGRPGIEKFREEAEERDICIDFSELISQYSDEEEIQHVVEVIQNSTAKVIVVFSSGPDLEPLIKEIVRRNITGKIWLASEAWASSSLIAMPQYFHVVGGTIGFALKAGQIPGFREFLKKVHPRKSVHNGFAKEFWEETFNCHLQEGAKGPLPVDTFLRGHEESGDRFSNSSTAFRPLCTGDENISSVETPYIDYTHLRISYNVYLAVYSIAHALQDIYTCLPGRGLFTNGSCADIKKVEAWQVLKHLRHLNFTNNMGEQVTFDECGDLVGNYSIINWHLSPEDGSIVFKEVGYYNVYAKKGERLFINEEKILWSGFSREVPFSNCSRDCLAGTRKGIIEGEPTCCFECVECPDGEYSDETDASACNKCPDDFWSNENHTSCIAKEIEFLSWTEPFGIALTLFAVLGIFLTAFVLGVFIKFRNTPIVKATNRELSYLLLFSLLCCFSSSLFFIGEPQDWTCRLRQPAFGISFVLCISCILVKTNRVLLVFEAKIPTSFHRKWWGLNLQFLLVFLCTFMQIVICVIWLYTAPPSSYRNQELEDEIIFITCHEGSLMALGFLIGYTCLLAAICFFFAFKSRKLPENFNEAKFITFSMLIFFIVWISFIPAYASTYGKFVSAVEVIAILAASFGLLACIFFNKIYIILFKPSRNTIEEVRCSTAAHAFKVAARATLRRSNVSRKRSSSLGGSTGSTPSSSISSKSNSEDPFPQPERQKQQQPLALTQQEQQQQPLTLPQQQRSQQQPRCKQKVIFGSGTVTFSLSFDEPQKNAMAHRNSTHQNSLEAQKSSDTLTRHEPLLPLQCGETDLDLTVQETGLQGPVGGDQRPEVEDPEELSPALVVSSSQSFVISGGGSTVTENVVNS
test_details: Inhibition of CASR (unknown origin)
experimental_endpoint: pIC50
Keep it numeric: pIC50 is minus log10 of the concentration in mol/L.

get_value(item= "C[C@@H](NCCCc1cccc(C(F)(F)F)c1)c1cccc2ccccc12" , readout=pIC50) returns 5.55

* * *

experimental_endpoint: IC50 (nM)
Please reply with the bare figure in nM and do not write the unit itself.

IC50 value, target or system Epidermal growth factor receptor (Homo sapiens, UniProt P00533), for CCOc1ccc(C2C(C#N)=C(N)OC3C2C(C)=NN3c2ccc(Cl)cc2)cc1 (centres undefined) : 0.21

IC50 on Epidermal growth factor receptor (Homo sapiens, UniProt P00533) for "CCOc1ccc(/C=C2/C(=O)N(c3ccc(Cl)cc3)N=C2C)cc1" is 0.12

Param item: "Cc1cc(C)cc(NNC(=O)[C@H]2CCCN2C(=O)Nc2ccc(C(F)(F)F)cc2)c1" ; param system: Epidermal growth factor receptor (Homo sapiens, UniProt P00533); output IC50: 87

Field IC50 (Epidermal growth factor receptor (Homo sapiens, UniProt P00533)), entry "Cc1cc(C)cc(NNC(=O)[C@H]2CCCN2C(=O)Nc2ccc(Cl)cc2)c1" : 96

* * *

Test system: MCF7
test_details: Cytotoxicity against human MCF7 cells assessed as reduction in cell growth incubated fro 72 hrs by MTT assay
Type: functional, cell-based
measurement_setup: MCF7, 72 h
experimental_endpoint: IC50 (nM)
Write it as a number; the unit nM goes unstated.

Please fill in: IC50 reported for "N[C@H]1CCN(c2c3cc(-c4ccnc(NC(=O)C5CC5)c4)ccc3nc3c2[nH]c2ccccc23)C1" = 1120

* * *

Tested on: BT-549
test_details: Cytotoxicity against human BT-549 cells assessed as cell growth inhibition
Type: functional, cell-based
experimental_endpoint: IC50 (µM)
The figure you give is taken to be in µM; do not add the unit.

Please fill in: IC50 reported for "Cc1cc(=O)n(C2CCCC2)c2nc(NCCC3CCN(C(=O)c4cc(Cc5n[nH]c(=O)c6ccccc56)ccc4F)CC3)ncc12" = 2.37

* * *

target_entity: Poly [ADP-ribose] polymerase 1 (Homo sapiens, UniProt P09874)
test_details: Inhibition of PARP1 (unknown origin)
experimental_endpoint: pIC50
Entry type: numeric. Quantity: pIC50, the -log10 of concentration in molar units.

Per the records, this molecule ( "Cc1cc(=O)n(C2CCCC2)c2nc(NCCC3CCN(C(=O)c4cc(Cc5n[nH]c(=O)c6ccccc56)ccc4F)CC3)ncc12" ) has pIC50 equal to 7.39

* * *

experimental_endpoint: IC50 (nM)
Field: numeric (nM). Do not append units.

Value sought: IC50, system Cyclin-dependent kinase 4 (Homo sapiens), item "CCN1CCN(c2ccc(Nc3ncc(F)c(-c4cnc5cnn(C(C)C)c5c4)n3)cc2)CC1" . Result: 10

* * *

Test system: HeLa
test_details: Antiproliferative activity against human HeLa cells
Format: functional, cell-based
experimental_endpoint: IC50 (nM)
Provide only the numeric value, understood in nM.

For reference, reported IC50 for Cc1n[nH]c2c1C(c1ccc(F)cc1)C(C#N)=C(N)O2 (stereo unspecified) stands at 1900

* * *

target_entity: Epidermal growth factor receptor (Homo sapiens)
Sequence (P00533 whole entry): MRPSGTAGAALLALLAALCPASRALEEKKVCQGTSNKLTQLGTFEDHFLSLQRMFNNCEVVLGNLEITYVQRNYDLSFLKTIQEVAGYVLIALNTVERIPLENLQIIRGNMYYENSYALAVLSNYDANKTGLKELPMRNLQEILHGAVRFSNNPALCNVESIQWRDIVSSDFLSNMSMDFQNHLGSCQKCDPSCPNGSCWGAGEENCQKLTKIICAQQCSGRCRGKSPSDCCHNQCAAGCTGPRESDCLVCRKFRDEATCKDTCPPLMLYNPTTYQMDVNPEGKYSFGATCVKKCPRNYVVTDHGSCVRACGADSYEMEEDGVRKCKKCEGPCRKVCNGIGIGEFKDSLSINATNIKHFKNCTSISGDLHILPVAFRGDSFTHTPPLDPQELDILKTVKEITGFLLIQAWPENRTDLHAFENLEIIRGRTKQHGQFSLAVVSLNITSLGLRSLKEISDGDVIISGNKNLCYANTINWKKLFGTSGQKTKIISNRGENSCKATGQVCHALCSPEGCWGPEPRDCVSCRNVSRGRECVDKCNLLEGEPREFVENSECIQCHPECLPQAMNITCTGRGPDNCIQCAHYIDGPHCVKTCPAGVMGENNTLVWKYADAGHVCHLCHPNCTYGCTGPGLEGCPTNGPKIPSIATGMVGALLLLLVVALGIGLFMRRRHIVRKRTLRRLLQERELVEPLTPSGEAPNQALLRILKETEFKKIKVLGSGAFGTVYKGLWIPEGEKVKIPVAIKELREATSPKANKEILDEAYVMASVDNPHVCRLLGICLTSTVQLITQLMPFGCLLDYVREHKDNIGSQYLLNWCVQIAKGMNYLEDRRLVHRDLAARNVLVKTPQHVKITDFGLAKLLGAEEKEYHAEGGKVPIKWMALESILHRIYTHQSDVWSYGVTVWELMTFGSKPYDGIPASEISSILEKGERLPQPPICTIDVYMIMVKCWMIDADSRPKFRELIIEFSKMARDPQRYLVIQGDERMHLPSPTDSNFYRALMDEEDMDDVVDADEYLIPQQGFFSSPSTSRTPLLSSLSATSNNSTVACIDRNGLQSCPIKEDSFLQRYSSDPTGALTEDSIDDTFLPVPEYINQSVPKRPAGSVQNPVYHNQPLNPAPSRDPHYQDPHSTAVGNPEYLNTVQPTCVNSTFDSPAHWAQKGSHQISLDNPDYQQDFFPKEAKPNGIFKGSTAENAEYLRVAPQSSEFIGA
test_details: Inhibition of EGFR (unknown origin) using Poly (Glu, Tyr) as substrate incubated for 60 mins in presence of ATP by Kinase-Glo Plus luminescence kinase assay relative to control
Please go through the items and note down their pIC50.
Lab note: report pIC50 as minus log10 of the concentration in molar units, number only.

Lab note: "O=C(c1ccc2ccccc2c1)c1cn(-c2ccccc2)nc1C1=Nn2cnnc2SC1" gave pIC50 of 7.19

# pIC50 (compound: "O=C(c1ccc2ccccc2c1)c1cn(-c2ccccc2)nc1C1=Nn2c(S)nnc2SC1" ) is 6.78

* * *

experimental_endpoint: pIC50
The meaning of pIC50 here: minus log10 of the concentration in molar units.

# lookup: "CC[C@H](CO)Nc1nc(NCc2ccccc2N)c2[nH]nc(C(C)C)c2n1" on Cyclin-dependent kinase 5 (Homo sapiens, UniProt Q00535), pIC50 = 6.59

* * *

target_entity: Aurora kinase A (Homo sapiens)
Sequence (O14965 whole entry): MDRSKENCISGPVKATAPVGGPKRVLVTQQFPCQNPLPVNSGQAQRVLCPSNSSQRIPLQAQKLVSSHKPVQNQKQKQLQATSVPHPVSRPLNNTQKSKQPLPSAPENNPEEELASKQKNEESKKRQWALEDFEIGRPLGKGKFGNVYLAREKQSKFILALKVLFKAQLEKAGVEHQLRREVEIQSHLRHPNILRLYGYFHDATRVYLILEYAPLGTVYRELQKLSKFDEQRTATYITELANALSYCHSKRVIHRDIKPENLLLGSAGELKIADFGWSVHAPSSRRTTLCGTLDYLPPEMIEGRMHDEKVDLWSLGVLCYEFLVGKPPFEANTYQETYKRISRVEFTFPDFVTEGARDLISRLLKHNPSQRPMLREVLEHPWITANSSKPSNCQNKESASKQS
experimental_endpoint: pIC50
In plain terms, pIC50 is the concentration in mol/L turned into minus its base-10 logarithm.

compound "CC[C@H](CO)Nc1nc(NCc2ccccc2N)c2[nH]nc(C(C)C)c2n1" , pIC50 observed: 6.40
